target: COX-1 (Ovis aries, UniProt P05979); construct: purchased Cayman 560131; experiment: Cyclooxygenase COX-1 inhibitory assay (Cayman COX inhibitor assay kit); type: biochemical, ovine; conditions: Fig. 2; mean ± SD, n=3; read-out: IC50 COX-1
PROPERTY LABEL: IC50 (µM)

[[record]]
molecule = "CC1=CCCC2C1(C)CCC(C)C2(C)CCC(C=O)=CC(=O)O (centres unmarked)"
tested_on = "COX-1 (Ovis aries, UniProt P05979)"
property_label = "IC50"
unit_name = "µM"
value = 25.1

[[record]]
molecule = "CC1=CCCC2C1(C)CCC(C)C2(C)CCC1=CC(=O)OC1O (centres unmarked)"
tested_on = "COX-1 (Ovis aries, UniProt P05979)"
property_label = "IC50"
unit_name = "µM"
value = 9.46


(P) C=C1CCCC2C1(C)CCC(C)C2(C)CCC1=CC(=O)OC1O (centres unmarked)
(Q) CC1=CCCC2C1(C)CCC(C)C2(C)CCC(=CC(=O)O)CO (centres unmarked) [Compound 2, 16-hydroxy-cleroda-3,13-dien-15-oic acid]
Sorting by IC50 in descending order, would P or Q appear first? Choose, then provide that item's label.
Q
(Q: 30.4 µM, P: 11.8 µM)

---

target: 5-LOX (human recombinant) (Homo sapiens, UniProt P09917); construct: purchased Sigma Aldrich 437996; assay: 5-lipoxygenase inhibitory assay (5-LOX assay kit); assay type: biochemical; conditions: IC50 5-LOX (concentration required for 50% inhibition), Fig. 2; mean ± SD, n=3
Sequence (P09917 whole entry): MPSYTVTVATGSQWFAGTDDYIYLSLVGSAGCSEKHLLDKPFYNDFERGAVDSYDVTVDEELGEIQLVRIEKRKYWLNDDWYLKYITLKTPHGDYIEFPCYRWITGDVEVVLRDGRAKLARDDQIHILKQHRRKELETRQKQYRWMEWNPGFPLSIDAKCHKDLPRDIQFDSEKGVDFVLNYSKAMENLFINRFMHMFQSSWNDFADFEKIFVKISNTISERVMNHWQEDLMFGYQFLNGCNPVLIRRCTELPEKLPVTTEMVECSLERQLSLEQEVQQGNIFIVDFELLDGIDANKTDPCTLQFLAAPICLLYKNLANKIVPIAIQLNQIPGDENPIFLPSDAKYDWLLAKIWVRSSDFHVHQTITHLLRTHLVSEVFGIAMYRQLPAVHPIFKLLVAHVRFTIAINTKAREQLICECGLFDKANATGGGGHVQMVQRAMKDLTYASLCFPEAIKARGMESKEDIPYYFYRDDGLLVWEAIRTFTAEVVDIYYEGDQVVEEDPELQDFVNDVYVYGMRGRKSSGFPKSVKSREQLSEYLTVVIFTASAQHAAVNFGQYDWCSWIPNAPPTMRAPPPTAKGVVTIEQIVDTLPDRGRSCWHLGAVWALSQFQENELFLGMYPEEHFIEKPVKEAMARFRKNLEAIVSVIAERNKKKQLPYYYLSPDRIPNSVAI
PROPERTY LABEL: IC50 (µM)

[[record]]
compound = "CC1=CCCC2C1(C)CCC(C)C2(C)CCC1=CC(=O)OC1O (centres unmarked)"
value = 14.4

[[record]]
compound = "CC1=CCCC2C1(C)CCC(C)C2(C)CCC(C=O)=CC(=O)O (centres unmarked)"
value = 26.4

[[record]]
compound = "C=C1CCCC2C1(C)CCC(C)C2(C)CCC1=CC(=O)OC1O (centres unmarked)"
value = 12.7


(I) CC1=CCCC2C1(C)CCC(C)C2(C)CCC(=CC(=O)O)CO (centres unmarked) [Compound 2, 16-hydroxy-cleroda-3,13-dien-15-oic acid]
(II) C=C1C(O)CCC2C1(C)CCC(C)C2(C)CCC1=CC(=O)OC1O (centres unmarked)
Which entry shows the lesser value of IC50 here, I or II ? Choose, then provide that item's label.
II

---

Molecular target: COX-1 (Ovis aries, UniProt P05979)
Construct: purchased Cayman 560131
Sequence (P05979 25-600): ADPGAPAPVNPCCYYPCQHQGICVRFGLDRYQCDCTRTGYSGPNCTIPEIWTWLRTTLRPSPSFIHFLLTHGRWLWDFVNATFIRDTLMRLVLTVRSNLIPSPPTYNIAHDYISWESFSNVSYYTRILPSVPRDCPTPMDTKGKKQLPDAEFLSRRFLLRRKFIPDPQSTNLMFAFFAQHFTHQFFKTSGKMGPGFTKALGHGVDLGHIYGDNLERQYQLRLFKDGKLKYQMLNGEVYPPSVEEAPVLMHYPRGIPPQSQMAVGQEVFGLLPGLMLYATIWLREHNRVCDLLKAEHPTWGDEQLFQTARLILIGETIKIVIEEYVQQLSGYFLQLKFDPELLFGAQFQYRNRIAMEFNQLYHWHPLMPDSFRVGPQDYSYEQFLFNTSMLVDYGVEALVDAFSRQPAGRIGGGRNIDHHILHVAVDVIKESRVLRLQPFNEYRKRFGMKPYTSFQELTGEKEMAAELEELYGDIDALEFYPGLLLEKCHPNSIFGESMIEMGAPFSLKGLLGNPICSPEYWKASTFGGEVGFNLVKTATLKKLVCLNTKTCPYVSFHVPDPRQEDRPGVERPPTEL
Test: Cyclooxygenase COX-1 inhibitory assay (Cayman COX inhibitor assay kit)
Format: biochemical, ovine
Conditions: 5.0 µg/mL; mean ± SD, n=3; read-out: Percentage inhibition COX1
PROPERTY LABEL: inhibition at 5 µg/mL (%)

[[record]]
compound = "C=C1CCCC2C1(C)CCC(C)C2(C)CCC1=CC(=O)OC1O (centres unmarked)"
unit_name = "%"
value = 61.5


(A) CC1=CCCC2C1(C)CCC(C)C2(C)CCC1=CC(=O)OC1O (centres unmarked)
(B) CC1=CCCC2C1(C)CCC(C)C2(C)CCC(=CC(=O)O)CO (centres unmarked) [Compound 2, 16-hydroxy-cleroda-3,13-dien-15-oic acid]
Sorting by inhibition at 5 µg/mL in descending order, would A or B appear first? Choose, then provide that item's label.
A
